- target-system: HLA-A*0301 (human)
Collected binding affinity ratio (IC50 of standard peptide / IC50 of test peptide) values appear next to each entry.
measure-name: binding affinity ratio (IC50 of standard peptide / IC50 of test peptide)

>  <binder>
QMNMSQWIR (modifications not checked) [HPV18 E1 position 426 peptide …]

>  <test-result>
0.0011

$$$$
>  <binder>
NSNAAAFLK (modifications not checked) [HPV18 E1 position 393 peptide …]

>  <test-result>
0.0057

$$$$
>  <binder>
GVSFSELVR (modifications not checked) [HPV16 E1 peptide … (position 216, 9 amino acids)]

>  <test-result>
0.0011

$$$$
>  <binder>
NMSQWIRFR (modifications not checked) [HPV18 E1 position 428 peptide …]

>  <test-result>
0.054

$$$$
>  <binder>
MLIQPPKLR (modifications not checked) [HPV18 E1 position 312 peptide …]

>  <test-result>
0.0005

$$$$
>  <binder>
FMSFLTALK (modifications not checked) [HPV16 E1 peptide … (position 453, 9 amino acids)]

>  <test-result>
0.13

$$$$
>  <binder>
LVRNFKSDK (modifications not checked) [HPV18 E1 position 229 peptide …]

>  <test-result>
0.0005

$$$$
>  <binder>
ALFTAQEAK (modifications not checked) [HPV16 E1 peptide … (position 69, 9 amino acids)]

>  <test-result>
0.24

$$$$
